Please respond with reported PBM binding z-score for every item in the list.
- Test system: VDR homodimer (NR concentration 270 nM)
- Test Details: PBM binding z-score (relative to random genomic background probes); higher = stronger binding; sequences stand for … in GC…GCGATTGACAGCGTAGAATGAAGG
One number for each entry.

Sequence Text: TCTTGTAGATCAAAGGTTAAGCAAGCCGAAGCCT
Target Under Test: VDR homodimer (NR concentration 270 nM)
Parameter: PBM binding z-score
Recorded Number: -0.138

State the recorded PBM binding z-score for every item in the following list.
1. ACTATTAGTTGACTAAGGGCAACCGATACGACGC
2. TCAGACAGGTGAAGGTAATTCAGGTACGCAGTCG
3. ATCTCTAGGTAAGACTCAGTTCAGTGATGAACGC

-- reply
1. 0.874
2. 0.38
3. 1.4

State the recorded PBM binding z-score for every item in the following list.
1. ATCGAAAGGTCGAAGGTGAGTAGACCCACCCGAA
2. CCTACTGGGCCATTCTGAGGTCATTGATCATATG
3. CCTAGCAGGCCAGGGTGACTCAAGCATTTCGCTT
4. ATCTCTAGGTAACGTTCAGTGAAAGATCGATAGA

-- reply
-0.0656
3.8
-0.814
-0.197

State the recorded PBM binding z-score for every item in the following list.
1. ATCGAAAGGTCGAGGTGAGTATCGAGAAAGGGAA
2. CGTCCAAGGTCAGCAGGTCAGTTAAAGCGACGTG
3. CCTATTAGTTGACCATAAGTGCAACCGAAGCTCG
4. TCTTGTAGATCAAGCAGGTTAAGAATGCCTGAGT

-- reply
1. 0.173
2. 1.71
3. 1.81
4. 0.0352

----------
Please respond with reported PBM binding z-score for every item in the list.
- Tested on: THRa homodimer (NR concentration 90 nM)
- Test Details: PBM binding z-score (relative to random genomic background probes); higher = stronger binding; sequences stand for … in GC…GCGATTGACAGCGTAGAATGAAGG
One number for each entry.

Below, 8 sequences whose answers are already recorded.
Sequence Text: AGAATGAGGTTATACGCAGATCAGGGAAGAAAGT
PBM binding z-score: 0.465
//
Sequence Text: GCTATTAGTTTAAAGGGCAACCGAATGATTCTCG
PBM binding z-score: 0.375
//
Sequence Text: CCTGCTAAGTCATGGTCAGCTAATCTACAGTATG
PBM binding z-score: -0.892
//
Sequence Text: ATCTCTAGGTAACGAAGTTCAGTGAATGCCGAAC
PBM binding z-score: 0.14
//
Sequence Text: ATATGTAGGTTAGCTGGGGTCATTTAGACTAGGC
PBM binding z-score: 3
//
Sequence Text: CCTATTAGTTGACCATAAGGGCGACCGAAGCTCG
PBM binding z-score: 0.626
//
Sequence Text: AATACAGGGTCTCTAGGCCAGAGTAGGTACGAAT
PBM binding z-score: -0.0749
//
Sequence Text: CAAACTAGGTCACCGGAAGGTCTAAGTCCGCATG
PBM binding z-score: 2.22

State the recorded PBM binding z-score for every item in the following list.
1. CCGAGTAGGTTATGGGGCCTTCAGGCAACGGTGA
2. CGTCCAAGGTCATAGGAGGTGAGTGAAGACAGAT
3. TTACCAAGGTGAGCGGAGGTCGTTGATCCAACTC
4. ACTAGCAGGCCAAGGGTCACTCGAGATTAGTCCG

-- reply
[0.292, 2.93, 0.656, 0.0934]
